Test system: A549 NSCLC
Assay: NCI tumour cell line growth inhibition, 48 h
Recorded TGI values for a group of compounds are listed next.

compound	study-target	TGI
CC(C)=CCC/C(=C/CC/C(C)=C/CCc1ccoc1)C(=O)O	A549 NSCLC	> 100 µM
Cc1cccc(N/C(=C(/C(Cl)=C(Cl)Cl)[N+](=O)[O-])n2nnc3ccccc32)c1	A549 NSCLC	36 µM
COc1ccc(C(=O)COc2cccc(/C=C3\COc4ccc5ccccc5c4C3=O)c2)cc1	A549 NSCLC	> 100 µM
Cc1c2c(cc3c1C(=O)C(=O)C([C@@H](C)CO)=C3O)C(C)(C)CCC2	A549 NSCLC	> 100 µM

// lookup TGI | system=A549 NSCLC | key= `CCOc1cccc(C=Nc2ccccc2SSc2ccccc2N=Cc2cccc(OCC)c2O)c1O`
26.6 µM

Request: TGI, test system A549 NSCLC, entry `COc1cccc(Nc2nc(C)c([N+](=O)[O-])c(Nc3cccc(OC)c3)n2)c1`
> 100 µM

Form entry - test system: A549 NSCLC; read-out: TGI; compound: `O=C(CCl)Nc1ccc(Cl)cc1`
26.9 µM

Fill in the recorded TGI for this compound, with A549 NSCLC as test system: `Clc1nc(Cl)c2ncn(Cc3cccc(COc4cccc(OCc5cccc(Cn6cnc7c(Cl)nc(Cl)nc76)c5)c4)c3)c2n1`
> 100 µM

Which TGI is reported with A549 NSCLC for this entry: `Cc1ccc2nc3c(C(=O)NCCN(C)C)cccc3nc2c1` ?
> 100 µM

Query the reported TGI for A549 NSCLC; item: `Nc1ncc(-c2cnn(CCO)c2)c2scc(-c3ccc(NC(=O)Nc4cccc(F)c4)cc3)c12`
1.5 µM

# get_value(readout= TGI, system= A549 NSCLC) for O=C1CSC(c2ccccc2)N1c1nc2cc3sc(N4C(=O)CSC4c4ccccc4)nc3cc2s1 (stereo not given)
> 100 µM

// lookup TGI | system=A549 NSCLC | key= `Cc1ccc(C(=NN=C(N)N)c2ccc(C)cc2)cc1`
7.09 µM

Look up TGI with A549 NSCLC for this compound: `CC(=O)OC[C@]12CC[C@H]3[C@@H](C[C@H]4O[C@]45[C@@H](O)C=CC(=O)[C@]35C)[C@@H]1CC[C@@H]2[C@H](C)[C@H]1CC(C)=C(C)C(=O)O1`
3.2 µM

State its TGI on A549 NSCLC: `COc1ccc(C(=O)c2cc(C)c(OC)c(C)c2)c(OC)c1N(C(=O)C(Cl)Cl)C(=O)C(Cl)Cl`
> 100 µM

Record lookup: for A549 NSCLC, what TGI belongs to `CCSc1nnc(Sc2c3ccccc3nc3ccccc23)s1` ?
> 100 µM

Record lookup: for A549 NSCLC, what TGI belongs to `CCCCN=C(N)c1ccc(OCCSCCOc2ccc(C(N)=NCCCC)cc2)cc1` ?
> 100 µM

Please provide the recorded TGI for `CSC1=N/C(=C\c2ccc(C)cc2)C(=O)N1` , tested on A549 NSCLC.
> 100 µM

// fetch A549 NSCLC TGI for `Cc1noc(C)c1CCCOC1COc2ccccc2OCCOCCOc2ccccc2OC1`
> 100 µM

Recall the recorded TGI for `O=c1[nH]c2cccc([N+](=O)[O-])c2c(=O)n1-c1ccc(Cl)cc1` with A549 NSCLC and state it.
36.3 µM

What TGI appears in the records for this compound with A549 NSCLC? `CC[C@@]1(O)C(=O)OCc2c1cc1n(c2=O)Cc2c-1nc1ccccc1c2/C=N\NC(=O)C[n+]1ccccc1`
> 100 µM

----------
Tested on: CCRF-CEM leukemia
Test: NCI tumour cell line growth inhibition, 48 h
Below is a list of entries, each paired with its recorded GI50 value.

compound	GI50
N.N.N.N.N.O=C([O-])c1nn[n-]n1.[Cl-].[Co+3]	> 100000 nM
COc1cc[nH]c1/C=C1\C(=O)Nc2ccccc21	13100 nM
Clc1nc(Cl)c2ncn(Cc3cccc(COc4cccc(OCc5cccc(Cn6cnc7c(Cl)nc(Cl)nc76)c5)c4)c3)c2n1	5240 nM
Cc1ccc(C(=NN=C(N)N)c2ccc(C)cc2)cc1	559 nM
CC/C=C\C[C@@H]1C/C=C2/C(=O)C=C[C@H]2C/C=C\CCCC(=O)O1	240 nM

Requested field: GI50. Item: `COc1ccc(OC)c(/C=C/C(=O)N/N=C/c2ccc(Cl)cc2)c1`
141 nM

# GI50 lookup, item `COc1ccc(C(=O)c2cc(C)c(OC)c(C)c2)c(OC)c1N(C(=O)C(Cl)Cl)C(=O)C(Cl)Cl`
62.6 nM

Find the recorded GI50 belonging to `CCS(=O)(=O)c1ccc(OC)c(Nc2ncc(-c3cccc(C(C)=O)c3)o2)c1` and report it.
> 25000 nM

Requested read-out: GI50. Entry: COc1cc(C2=NN(C(C)=O)C(c3ccc(OC(C)=O)cc3OC(C)=O)O2)c(OC(C)=O)c2ccccc12 (stereo unspecified)
338 nM

Item under review: `NCCCC[C@@H]1NC(=O)[C@H]2CCCN2C(=O)[C@H](Cc2ccccc2)NC(=O)[C@H](Cc2ccccc2)CNC1=O` . Reported GI50?
> 100000 nM

State the recorded GI50 for this entry: `O=C(Nc1ccc(Cl)cc1)c1cc(-c2ccc(F)cc2)c2sc(=O)[nH]c2n1`
657 nM

----------
compounds and their reported TGI
Test system: HOP-62 NSCLC
Experiment: NCI tumour cell line growth inhibition, 48 h

compound	TGI
Cc1ccc2nc3c(C(=O)NCCN(C)C)cccc3nc2c1	14 µM

# lookup: TGI of `CC(=O)OC1=NN=C2COC(c3ccccc3OC(C)=O)=NN2C1`
> 50 µM

Reported TGI for COC(=O)C1=CC2C(=O)c3ccccc3C1(c1ccccc1)N2C1CCCCC1 (stereo unspecified) : what is it?
36.8 µM

----------
Test system: OVCAR-8 ovarian
Experiment: NCI tumour cell line growth inhibition, 48 h
Items are presented alongside their recorded log10 of TGI.
Hello, just confirming the data are log10 of TGI with units of µM.

molecule	log10 of TGI
Cc1cccc(N/C(=C(/C(Cl)=C(Cl)Cl)[N+](=O)[O-])n2nnc3ccccc32)c1	1.49

Give the reported log10 of TGI for CCN(CC)CCCC(C)Nc1c(C)cnc2cc(Cl)c(C)cc12 (centres undefined) (system: OVCAR-8 ovarian).
1.64

# get_value(readout= log10 of TGI, system= OVCAR-8 ovarian) for `N=C1C(=N)c2ccccc2-c2ccccc21.[Cl-].[Ru+2].c1cnc2c(c1)ccc1cccnc12.c1cnc2c(c1)ccc1cccnc12`
1.98

----------
Test system: CAKI-1 renal
Test: NCI tumour cell line growth inhibition, 48 h
reported-metric: TGI

See these solved cases before continuing.
compound	observed-measurement
NC1=NN(c2ccccc2)C(=O)C1C(=O)CCC(=O)Nc1cccc(C(F)(F)F)c1 (stereo not given)	> 100 µM
COc1nn(Cc2ccccn2)c2ccc([N+](=O)[O-])cc12	> 100 µM
CC(=O)c1c(-c2ccc(Cl)cc2)c(-c2ccc(Cl)cc2)n[nH]c1=O	> 100 µM

Consider the compound shown here: `COc1cc(OC)c(/C=C/C(=O)c2c(OC)cccc2OC)c(OC)c1` What is its recorded TGI?
97 µM

Entry COc1cc(C2C3=C(COC3=O)OC(C)(C)Oc3cc4c(cc32)OCO4)cc(OC)c1O (stereo not given) has what TGI?
> 46.4 µM

Consider the compound `Cc1cccc(N/C(=C(/C(Cl)=C(Cl)Cl)[N+](=O)[O-])n2nnc3ccccc32)c1` and give its measured TGI.
31.4 µM

# TGI lookup, item `CCCCNC(=S)Nc1nc(C(=O)NNC(=S)NCC)cs1`
> 100 µM

Find the recorded TGI belonging to CCCCCCCC(CC(=O)NC(CO)C(=O)NC(CO)CC(C)C)OC(=O)CC(CCCCCCC)OC(=O)CC(CCCCCCC)OC1OC(C)C(O)C(OC2OC(C)C(O)C(OC(C)=O)C2O)C1O (stereo not given) and report it.
30.2 µM

Can you share its TGI? I mean this compound: Cc1ccc2c(c1)C(=O)C1(C2)Cc2c(C)cccc2C1=O (stereo not given)
> 100 µM

GET /values?readout=TGI&item= `COc1ccc(-c2cn3ccsc3n2)cc1`
> 100 µM

----------
Tested on: 786-0 renal
Assay: NCI tumour cell line growth inhibition, 48 h
Let's look at some compounds and their measured TGI.

Past entries and their recorded results:
compound	TGI
O=C(Nc1ccc(Cl)cc1)c1cc(S(=O)(=O)Nc2n[nH]c(Nc3ccc4ccccc4c3)n2)c(SSc2cc(Cl)c(C(=O)Nc3ccc(Cl)cc3)cc2S(=O)(=O)Nc2n[nH]c(Nc3ccc4ccccc4c3)n2)cc1Cl	> 94.3 µM
COc1cc[nH]c1/C=C1\C(=O)Nc2ccccc21	> 25 µM
CN(C)CC/C(=N\Nc1c(Cl)cccc1Cl)c1ccccc1	31.3 µM
C[N+]12CCCCC1C(COc1cccc3cccnc13)CCC2 (stereo not given)	> 100 µM

Moving on to the next compound.
May I ask what TGI has been recorded for `COC(=O)c1cc(Br)c(Br)n1C` ?
> 100 µM
